- test description: Plasma and brain homogenate concentrations after Morris Water Maze (UHPLC-MS/MS)
- Type: in vivo, mice
- settings: mouse, brain, intraperitoneal, 20 mg/kg; WT mice; read-out: partition coefficient at steady state (Kp = brain concentration/plasma concentration)
- Method: […]. To that end, all animals were sacrificed directly after the Morris Water Maze (MWM) and plasma and brain homogenates (one hemisphere) were extracted and analyzed. […]. […] […]. […] All plasma and brain homogenate extracts were analyzed by an ultra-high performance liquid chromatography (UHPLC) system coupled to a triple-quadrupole mass spectrometer (Dionex Ultimate 3000 RSLC system coupled to a TSQ Vantage EMR, Thermo Scientific, Les Ulis, France). […] All samples were analyzed in triplicate. […]
assay readout: Kp
Respond with the number and no other words.

Given the compound Oc1ccc(-c2cnc3[nH]cc(-c4ccc(F)cc4)c3c2)cc1O [Compound 5a] , write its reported Kp.
10.8

====

- target: DYRK1A catalytic domain (DYRK1A-ΔC) (Rattus norvegicus)
- Construct: The cDNA coding for the catalytic domain (residues 1-502) of rat DYRK1A; 6xHis; made in house; host or cells: E. coli BL21(DE3), pET28
- test description: In vitro DYRK1A kinase inhibition, UFLC assay with fluorescent peptide substrate
- Assay type: biochemical
- settings: 3,5-diaryl-7-azaindoles 5a-5g, Fig. 5; read-out: IC50, in vitro inhibition of DYRK1A
Values of IC50 strictly less than 60 nM map to yes (1), and values of at least 60 nM map to no (0).

Could you please tell me whether IC50 recorded for Oc1ccc(-c2cnc3[nH]cc(-c4ccc(F)cc4)c3c2)c(O)c1 is less than 60 nM?
no (0)

Could you please tell me whether IC50 recorded for Oc1ccc(-c2cnc3[nH]cc(-c4ccc(F)c(F)c4)c3c2)c(O)c1 is less than 60 nM?
no (0)

Could you please tell me whether IC50 recorded for COc1ccc(-c2c[nH]c3ncc(-c4ccc(O)c(O)c4)cc23)cc1OC is less than 60 nM?
no (0)

Could you please tell me whether IC50 recorded for Oc1ccc(-c2cnc3[nH]cc(-c4ccc(F)c(F)c4)c3c2)cc1O is less than 60 nM?
yes (1)

Could you please tell me whether IC50 recorded for COc1ccc(-c2c[nH]c3ncc(-c4ccc(O)cc4)cc23)cc1F is less than 60 nM?
yes (1)

====

- test description: Bioavailability in plasma after i.p. injection (UHPLC-MS/MS)
- Assay type: in vivo
- settings: mouse, ip, WT mice, 20 mg/kg i.p., after slow decrease over 2.5 hours, read-out: plasma level
- Protocol: Before undertaking behavioral studies in Ts65Dn mice, the bioavailability of F-DANDY 5a in plasma after peripheral (intraperitoneal – i.p.) injection in mice was determined. […] All plasma and brain homogenate extracts were analyzed by an ultra-high performance liquid chromatography (UHPLC) system coupled to a triple-quadrupole mass spectrometer (Dionex Ultimate 3000 RSLC system coupled to a TSQ Vantage EMR, Thermo Scientific, Les Ulis, France). […] All samples were analyzed in triplicate. […]
assay readout: concentration at 2.5 h

Given the compound Oc1ccc(-c2cnc3[nH]cc(-c4ccc(F)cc4)c3c2)cc1O [Compound 5a] , write its reported concentration at 2.5 h.
~50 ng/mL

====

- test description: Plasma and brain homogenate concentrations after Morris Water Maze (UHPLC-MS/MS)
- Format: in vivo, mice
- settings: mouse, brain, intraperitoneal, 20 mg/kg; Ts65Dn mice; read-out: partition coefficient at steady state (Kp = brain concentration/plasma concentration)
assay readout: Kp
Respond with the number and no other words.

Given the molecule Oc1ccc(-c2cnc3[nH]cc(-c4ccc(F)cc4)c3c2)cc1O , write its reported Kp.
6.43

====

- test description: Bioavailability in plasma after i.p. injection (UHPLC-MS/MS)
- Format: in vivo
- settings: mouse, ip, WT mice, 20 mg/kg i.p., t = 4.4 min
assay readout: concentration at 4.4 min
The reply should read as a number followed by its unit.

Given the molecule Oc1ccc(-c2cnc3[nH]cc(-c4ccc(F)cc4)c3c2)cc1O [Compound 5a] , write its reported concentration at 4.4 min.
312 ng/mL

====

- target: DYRK1A catalytic domain (DYRK1A-ΔC) (Rattus norvegicus, UniProt Q63470)
- Construct: The cDNA coding for the catalytic domain (residues 1-502) of rat DYRK1A; 6xHis; made in house; host or cells: E. coli BL21(DE3), pET28
- test description: In vitro DYRK1A kinase inhibition, UFLC assay with fluorescent peptide substrate
- Type: biochemical
- settings: IC50, in vitro inhibition of DYRK1A, 3,5-diaryl-7-azaindoles 5a-5g, Fig. 5
assay readout: IC50 (nM)
Just the number please, in nM, no unit attached.

Given the molecule Oc1ccc(-c2cnc3[nH]cc(-c4ccc(F)cc4)c3c2)cc1O , write its reported IC50.
20.7

====

- target: DYRK1A catalytic domain (DYRK1A-ΔC) (Rattus norvegicus, UniProt Q63470)
- Construct: The cDNA coding for the catalytic domain (residues 1-502) of rat DYRK1A; 6xHis; made in house; host or cells: E. coli BL21(DE3), pET28
- test description: In vitro DYRK1A kinase inhibition, UFLC assay with fluorescent peptide substrate
- Format: biochemical
- settings: 3,5-diaryl-7-azaindoles 4a-4f, Fig. 4; read-out: IC50, in vitro inhibition of DYRK1A
assay readout: pIC50
FYI, pIC50 means -log10 of a concentration in mol per litre.

Given the compound COc1ccc(-c2cnc3[nH]cc(-c4ccc(F)cc4)c3c2)c(OC)c1 , write its reported pIC50.
6.04

Given the compound COc1ccc(-c2cnc3[nH]cc(-c4ccc(F)cc4)c3c2)cc1OC , write its reported pIC50.
5.84

Given the compound COc1ccc(-c2cnc3[nH]cc(-c4ccc(F)c(F)c4)c3c2)cc1OC , write its reported pIC50.
5.28

Given the compound COc1ccc(-c2cnc3[nH]cc(-c4ccc(F)c(F)c4)c3c2)c(OC)c1 , write its reported pIC50.
4.43

Given the compound COc1ccc(-c2c[nH]c3ncc(-c4ccc(OCc5ccccc5)cc4)cc23)cc1F , write its reported pIC50.
5.22

Given the compound COc1ccc(-c2c[nH]c3ncc(-c4ccc(OCc5ccccc5)c(OCc5ccccc5)c4)cc23)cc1OC , write its reported pIC50.
4.73

====

- test description: Bioavailability in plasma after i.p. injection (UHPLC-MS/MS)
- Assay type: in vivo
- settings: mouse, ip, WT mice, 20 mg/kg i.p., t = 5.4 min
assay readout: concentration at 5.4 min (µg/mL)
Just the number please, in µg/mL, no unit attached.

Given the molecule Oc1ccc(-c2cnc3[nH]cc(-c4ccc(F)cc4)c3c2)cc1O [Compound 5a] , write its reported concentration at 5.4 min.
0.236

====

- target: DYRK1A (Homo sapiens)
- Construct: vectors encoding full-length human DYRK1A and Tau
- test description: Inhibition of tau phosphorylation by DYRK1A in cellulo (HEK293 co-transfected with DYRK1A and Tau, ClariCELL ELISA phospho-TauT212)
- settings: HEK293 transfected with DYRK1A and tau, 2 h incubation
assay readout: IC50 (nM)
Just the number please, in nM, no unit attached.

Given the molecule Oc1ccc(-c2cnc3[nH]cc(-c4ccc(O)c(F)c4)c3c2)cc1 , write its reported IC50.
380
